assay: In vitro clearance, human; assay type: in vitro ADME
READOUT_NAME: Predicted CLhep (h) (mL/min/kg)
Numbers only, in mL/min/kg.

1) O=C(Nc1ccc2scnc2c1)C12CC1CN(S(=O)(=O)c1ccc3c(c1)CCO3)C2 (centres unmarked) [12h]	18

For the 5 compounds below, give their Predicted CLhep (h) values.
1. O=C(Nc1ccc2scnc2c1)[C@@H]1CCN(S(=O)(=O)c2ccc3c(c2)CCO3)C1 [12d]
2. O=C(Nc1ccc2scnc2c1)[C@@H]1CCN(S(=O)(=O)c2ccc3ncsc3c2)C1 [17j]
3. O=C(Nc1ccc2scnc2c1)[C@@H]1CCN(S(=O)(=O)c2ccc3c(c2)OCO3)C1 [17g]
4. C[C@H]1CN(S(=O)(=O)c2ccc3c(c2)CCO3)C[C@@H]1C(=O)Nc1ccc2scnc2c1 [12f]
5. O=C(Nc1ccc2scnc2c1)C1CN(S(=O)(=O)c2ccc3c(c2)CCO3)C1 [12b]

1. 15
2. 13
3. 12
4. 4
5. 16

Can you give me Predicted CLhep (h) for all of these, one by one?
1. [2H]C1([2H])Oc2ccc(S(=O)(=O)N3CC[C@@H](C(=O)Nc4ccc5scnc5c4)C3)cc2C1([2H])[2H] [17f]
2. O=C(Nc1ccc2scnc2c1)[C@H]1CCN(S(=O)(=O)c2ccc3c(c2)CCO3)C1 [12c]

1: 15; 2: 16

====

Hi there, I'd appreciate the recorded Predicted CLhep (r) for every entry that follows.
assay: In vitro clearance, rat; type: in vitro ADME
Numbers only, in mL/min/kg.

Some solved entries appear below for comparison.
1. O=C(Nc1ccc2scnc2c1)[C@@H]1CCN(S(=O)(=O)c2ccc3ncccc3c2)C1 [17i]	51
2. C[C@H]1CN(S(=O)(=O)c2ccc3c(c2)CCO3)C[C@@H]1C(=O)Nc1ccc2scnc2c1 [12f]	29

For O=C(Nc1ccc2scnc2c1)C1CN(S(=O)(=O)c2ccc3c(c2)CCO3)C1 [12b] , what is its reported Predicted CLhep (r)?
57

====

assay: In vitro clearance, human; format: in vitro ADME
READOUT_NAME: Predicted CLhep (h) (mL/min/kg)
Give bare numbers, in mL/min/kg.

1) O=C(Nc1ccc2scnc2c1)C1CCN(S(=O)(=O)c2ccc3c(c2)CCO3)C1 (stereo not drawn) [12a]	16

Look at each compound and report its Predicted CLhep (h).
1. O=C(Nc1ccc2scnc2c1)[C@@H]1CCN(S(=O)(=O)c2ccc3ncccc3c2)C1 [17i]
2. C[C@@H]1CN(S(=O)(=O)c2ccc3c(c2)CCO3)C[C@@H]1C(=O)Nc1ccc2scnc2c1 [12e]

[14, 19]

====

assay: In vitro clearance, rat; format: in vitro ADME
1 if Predicted CLhep (r) is below 60 mL/min/kg. 0 if not; exact matches included in 0.

Example entries and their recorded answers appear below.
1) O=C(Nc1ccc2scnc2c1)[C@@H]1CCN(S(=O)(=O)c2ccc3ncsc3c2)C1 [17j]	1
2) O=C(Nc1ccc2scnc2c1)[C@@H]1CCN(S(=O)(=O)c2ccc3c(c2)OCO3)C1 [17g]	1
3) C[C@@H]1CN(S(=O)(=O)c2ccc3c(c2)CCO3)C[C@@H]1C(=O)Nc1ccc2scnc2c1 [12e]	0
4) O=C(Nc1ccc2scnc2c1)C1CCN(S(=O)(=O)c2ccc3c(c2)CCO3)C1 (centres unmarked) [12a]	1
5) O=C(Nc1ccc2scnc2c1)[C@H]1CCN(S(=O)(=O)c2ccc3c(c2)CCO3)C1 [12c]	1

Quick check: does [2H]C1([2H])Oc2ccc(S(=O)(=O)N3CC[C@@H](C(=O)Nc4ccc5scnc5c4)C3)cc2C1([2H])[2H] [17f] have Predicted CLhep (r) under 60 mL/min/kg?
1
